measurement-description: Study C: single and multiple dose pharmacokinetics of MNTX and metabolites, MNTX 450 mg PO x 7 days
Format: in vivo, human
measurement-setup: human, plasma, po, 450 mg, 450 mg Tablets oral, Day 1, harmonic mean
value-kind: half-life
# do not omit the unit; it follows the number

QUERY: Given the molecule C[N@+]1(CC2CC2)CC[C@]23c4c5ccc(O)c4O[C@H]2C(=O)CC[C@@]3(O)[C@H]1C5.[Br-] , what is its reported half-life?
RESULT: 8.8 h

###

measurement-description: Study B: single and multiple dose pharmacokinetics after 20-minute intravenous infusion of 24 mg methylnaltrexone
Type: in vivo, human
measurement-setup: human, in vivo; 24 mg IV infusion, day not given, mean; read-out: AUC0-6
value-kind: AUC(0-t)
Record the result as number plus unit.

QUERY: So what does the record say about AUC(0-t) for C[N@+]1(CC2CC2)CC[C@]23c4c5ccc(O)c4O[C@H]2C(=O)CC[C@@]3(O)[C@H]1C5.[Br-] ?
RESULT: 326 ng·h/mL

###

measurement-description: Comparative bioavailability: single oral 150, 300, 450 mg MNTX tablets vs 12 mg SC injection, crossover
Assay type: in vivo, human
measurement-setup: human, plasma, oral, 150 mg, MNTX 150 mg Tablet; read-out: AUC0-t, Geometric LSM
value-kind: AUC(0-t) (ng·h/mL)
The response must be a number in ng·h/mL with no trailing unit.

QUERY: Recorded AUC(0-t) of C[N@+]1(CC2CC2)CC[C@]23c4c5ccc(O)c4O[C@H]2C(=O)CC[C@@]3(O)[C@H]1C5.[Br-] , please.
RESULT: 94.2

###

measurement-description: Study C: single and multiple dose pharmacokinetics of MNTX and metabolites, MNTX 450 mg PO x 7 days
Format: in vivo, human
measurement-setup: human, plasma; 450 mg Tablets oral, Day 1, median; read-out: Tmax
Procedure: Presented herein is a clinical pharmacokinetics study, Study C, as well as Studies A and B. Study A investigated the single and multiple dose pharmacokinetics of methylnaltrexone (MNTX) and its metabolites (M2: methylnaltrexone sulfate; M4: 6α-methylnaltrexol; and M5: 6β-methylnaltrexol) following the subcutaneous administration of 12 mg methylnaltrexone. […]
value-kind: Tmax (h)
Quick reminder: number only, in h, skip the unit.

QUERY: GET /values?readout=Tmax&item= C[N@+]1(CC2CC2)CC[C@]23c4c5ccc(O)c4O[C@H]2C(=O)CC[C@@]3(O)[C@H]1C5.[Br-] [MNTX]
RESULT: 2

###

measurement-description: Comparative bioavailability: single oral 150, 300, 450 mg MNTX tablets vs 12 mg SC injection, crossover
Format: in vivo, human
measurement-setup: human, plasma, po, 150 mg, MNTX 150 mg Tablet, single oral dose, mean; read-out: Cmax
value-kind: Cmax (ng/mL)
Please respond with the number in ng/mL and leave the unit unwritten.

QUERY: What does the record list as Cmax for C[N@+]1(CC2CC2)CC[C@]23c4c5ccc(O)c4O[C@H]2C(=O)CC[C@@]3(O)[C@H]1C5.[Br-] ?
RESULT: 13.2

###

measurement-description: Study B: single and multiple dose pharmacokinetics after 20-minute intravenous infusion of 24 mg methylnaltrexone
Assay type: in vivo, human
measurement-setup: human, in vivo, iv, 24 mg, 24 mg IV infusion, Day 7, mean
value-kind: AUC(0-inf) (ng·h/mL)
The reply should contain only the number, in ng·h/mL.

QUERY: If you can, please state the reported AUC(0-inf) value of C[N@+]1(CC2CC2)CC[C@]23c4c5ccc(O)c4O[C@H]2C(=O)CC[C@@]3(O)[C@H]1C5.[Br-] .
RESULT: 375

The measured values listed here are drawn from patent US20190231771A1.
